Test system: PPARg:RXRa 30nM:10nM, anti-RXR (NR concentration 30 nM, RXRa partner concentration 10 nM)
ASSAY_METHOD_TEXT: PBM binding z-score (relative to random genomic background probes); higher = stronger binding; sequences stand for … in GC…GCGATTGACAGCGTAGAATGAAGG
TEST_READOUT: PBM binding z-score
One number for each entry.

These solved cases illustrate the format of a correct answer.
SEQUENCE_INPUT	TESTED_ON	PBM binding z-score
CGAACTAGGACAAGGACAGTGAATCTCCGCACGC	PPARg:RXRa 30nM:10nM, anti-RXR (NR concentration 30 nM, RXRa partner concentration 10 nM)	-0.234
TCTTCTAGATCAACAGGAGGTTAAGAAAGATCGA	PPARg:RXRa 30nM:10nM, anti-RXR (NR concentration 30 nM, RXRa partner concentration 10 nM)	3.46
GCATATAGGTAATACAAGGTGAACGTCCGATTGT	PPARg:RXRa 30nM:10nM, anti-RXR (NR concentration 30 nM, RXRa partner concentration 10 nM)	0.658
CAAACTAGGGCACGAAAGGTCAAAGTCGAATGAC	PPARg:RXRa 30nM:10nM, anti-RXR (NR concentration 30 nM, RXRa partner concentration 10 nM)	5.17
AGAACGAGGGCAATGAGTTGATAGAACGGGTGGC	PPARg:RXRa 30nM:10nM, anti-RXR (NR concentration 30 nM, RXRa partner concentration 10 nM)	0.188

Below are 3 sequences. Give each one its PBM binding z-score.
1. CTCGAAAGGTCCGTTGAGGTGAGTATACGGATAA
2. CGTCAAAGTTCTACTAAGGTAACGTAAAGCACGC
3. CCGACTGGGGCATAAGGTTAACATAAGCCAGCCC

[out]
1. -0.184
2. 0.196
3. 1.27
